- Method notes: A CellTox Green Cytotoxicity Assay to monitor cytotoxicity in HEK293 cells - 8 hour (AID 1224884); further: nearly all actives have a fitted effect of over 35% in size
- Assay conditions: CellTox Green fluorescence; series mostly up to 76.8 µM
- From the text: National Center for Advancing Translational Sciences [NCATS] NIH Chemical Genomics Center [NCGC] U.S. Environmental Protection Agency [EPA] National Institutes of Environmental Health Sciences [NIEHS] National Toxicology Program [NTP] Cell-based models are critical for drug discovery. […] Viable cells produce no appreciable increases in fluorescence. Therefore, the fluorescence signal produced by the binding interaction with dead cell DNA is proportional to cytotoxicity. […]
Records with an inconclusive call do not appear. Activity calls are given as the source filed them. The call rests on the fitted dose curve; in most records, active means well fitted activation curve with a large enough effect in the repeat runs; inconclusive means weak or mixed curves; inactive means flat fitted curve, though single readings scatter.
Assign a class; possible classes are active, inactive

Sample answers from the record:
CCCC1O[C@@H]2C[C@H]3[C@@H]4CCC5=CC(=O)C=C[C@]5(C)[C@H]4[C@@H](O)C[C@]3(C)[C@]2(C(=O)CO)O1 (some centres undefined)
inactive
CCCCCCCCCCCCCCCCCC[N+](C)(C)C
active
COc1ccc(-c2ccc3cc(C(=O)O)ccc3c2)cc1C12CC3CC(CC(C3)C1)C2
inactive
CCCC(C)c1ccccc1O (centres undefined)
inactive
CC(C)(C)CC(C)(C)c1ccc(O)c(Cc2ccc(Cl)cc2Cl)c1
inactive
CN1CCC(Nc2ncc3ncnc(Nc4ccc(F)c(Cl)c4)c3n2)CC1
inactive
CC(C)(C)C(=O)OCOC(=O)[C@@H]1N2C(=O)[C@@H](NC(=O)[C@H](N)c3ccccc3)[C@H]2SC1(C)C
inactive
N=C1N=C(N)c2ccccc21
inactive

Q: Could you kindly confirm the outcome this assay logged for OC1(c2ccc(Cl)c(C(F)(F)F)c2)CCN(CCCC(c2ccc(F)cc2)c2ccc(F)cc2)CC1 ?
A: active

Q: Recorded test call requested for CCCCCCC[N+](CC)(CC)CCCCc1ccc(Cl)cc1
A: inactive

Q: What was the test verdict on Oc1cccc2cc3cccc(O)c3c(O)c12 ?
A: inactive

Q: Assay outcome for CC[C@@]1(O)C(=O)OCc2c1cc1n(c2=O)Cc2c-1nc1ccccc1c2/C=N/OC(C)(C)C : what was it?
A: inactive

Q: Short answer needed: outcome of this test for O=C(Nc1cccc([N+](=O)[O-])c1)c1cc2ccccc2cc1O ?
A: inactive

###

- Method notes: qHTS assay for small molecule activators of the heat shock response signaling pathway - cell viability counter screen (AID 743209); further: nearly all actives have a fitted effect of over 50% in size; further: potency means the concentration at half of the fitted maximal effect
- Assay conditions: HSE-bla HeLa viability, CellTiter-Glo luminescence, 5 h; series mostly up to 62.6 µM
- Excerpt: U.S. Tox21 Program National Center for Advancing Translational Sciences [NCATS] NIH Chemical Genomics Center [NCGC] U.S. Environmental Protection Agency [EPA] National Institutes of Environmental Health Sciences [NIEHS] National Toxicology Program [NTP] U.S. Food and Drug Administration [FDA] Tox21 Assay Overview: Various chemicals, environmental and physiological stress conditions may lead to the activation of heat shock response/ unfolded protein response (HSR/UPR). […]
Results filed as inconclusive are left out. Calls of active or inactive are those of the source. Calls follow the shape of the dose curve; as a rule, active = well fitted cell-killing curve with a large enough effect in the repeat runs; inconclusive = weak or mixed curves, or effect the other way; inactive = no such curve, though single readings can be large or run the other way.
Reported endpoint: Potency

A selection of reference data follows.
O=C1C=CC(=O)N1c1ccc(Cc2ccc(N3C(=O)C=CC3=O)cc2)cc1
17.4 µM (active)
Cc1cc(O)c(C(C)(C)C)cc1C(C)(C)C
43.6 µM (active)
CCC(N)(CO)CO
inactive
CN(C)[C@@H]1C(=O)C(C(N)=O)=C(O)[C@@]2(O)C(=O)C3=C(O)c4c(O)cccc4C[C@H]3C[C@@H]12
inactive

Q: Reported Potency, compound O=C1Cc2cc(CCN3CCN(c4nsc5ccccc45)CC3)c(Cl)cc2N1 : ____
A: inactive

Q: Record request: Potency value, item C[C@]12CCC(=O)C=C1CC[C@@H]1[C@@H]2[C@@H](O)C[C@@]2(C)[C@H]1CC[C@]2(O)C(=O)COC(=O)CCC(=O)O
A: inactive

Q: What value of measured Potency is listed for c1ccc(CSCc2ccccc2)cc1 ?
A: inactive

Q: Give the measured Potency of CCCN(CCC)c1c([N+](=O)[O-])cc(C(F)(F)F)c(N)c1[N+](=O)[O-] .
A: 34.6 µM (active)

Q: Fill in the blank: the reported Potency of CSc1ccc2c(c1)C(N1CCN(C)CC1)Cc1ccccc1S2 (stereo not drawn) is ____.
A: inactive

###

- System tested: Nuclear receptor subfamily 1 group I member 3 (Homo sapiens) (UniProt Q14994)
- Sequence (Q14994 whole entry, looked up): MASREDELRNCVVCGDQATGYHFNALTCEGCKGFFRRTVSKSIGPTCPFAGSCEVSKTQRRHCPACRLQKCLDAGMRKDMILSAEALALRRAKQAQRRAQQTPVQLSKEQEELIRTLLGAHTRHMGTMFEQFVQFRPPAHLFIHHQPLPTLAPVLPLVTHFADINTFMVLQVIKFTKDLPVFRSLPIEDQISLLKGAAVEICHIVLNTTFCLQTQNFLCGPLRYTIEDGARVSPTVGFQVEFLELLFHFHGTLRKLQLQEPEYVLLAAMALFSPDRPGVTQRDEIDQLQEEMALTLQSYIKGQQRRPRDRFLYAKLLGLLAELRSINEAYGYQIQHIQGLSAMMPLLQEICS
- Method notes: qHTS assay to identify small molecule antagonists of the constitutive androstane receptor (CAR) signaling pathway (AID 1224838);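 further: HepG2 cells stably expressing hCAR with CYP2B6 luciferase reporter stimulated by CITCO; nearly all actives have a fitted effect of over 40% in size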
- Assay conditions: HepG2-CYP2B6-hCAR luciferase, CITCO-stimulated, 24 h; series mostly up to 92.4 µM
Inconclusive results are not listed. Calls of active or inactive are those of the source. Calls follow the shape of the dose curve; as a rule, active = well fitted inhibition curve with a large enough effect in the repeat runs; inconclusive = weak or mixed curves, or effect the other way; inactive = no such curve, though single readings can be large or run the other way.
// one of active, inactive, no free text

Worked set:
O=C(Oc1ccccc1)c1ccccc1C(=O)Oc1ccccc1
inactive
CC(=O)S[C@@H]1CC2=CC(=O)CC[C@]2(C)[C@H]2CC[C@@]3(C)[C@@H](CC[C@@]34CCC(=O)O4)[C@H]12
active
CCC1=C[C@@H]2CN(C1)Cc1c([nH]c3ccccc13)[C@@](C(=O)OC)(c1cc3c(cc1OC)N(C)[C@H]1[C@@](O)(C(=O)OC)[C@H](OC(C)=O)[C@]4(CC)C=CCN5CC[C@]31[C@@H]54)C2
active
CCCCCCCCCCCCCCCC(=O)OC[C@H](O)[C@H]1OC(=O)C(O)=C1O
inactive
CC1(C)CCC(C)(C)c2cc(C(=O)Nc3ccc(C(=O)O)cc3)ccc21
inactive

Turning now to a further record.
Q: What outcome does the record of this test show for OCCCCCCCCCCCCBr ?
A: inactive

###

- Method notes: A CellTox Green Cytotoxicity Assay to monitor cytotoxicity in HEK293 cells - 32 hour (AID 1224881); further: nearly all actives have a fitted effect of over 40% in size
- Assay conditions: CellTox Green fluorescence; series mostly up to 76.8 µM
Records with an inconclusive call do not appear. Activity calls are given as the source filed them. Calls follow the shape of the dose curve; as a rule, active = well fitted activation curve with a large enough effect in the repeat runs; inconclusive = weak or mixed curves; inactive = flat fitted curve, though single readings scatter.
One label from this list, please: True = active, False = inactive

CCC(CN)=C(c1ccccc1)c1ccccc1
False
CCN(CC)CCCC(C)Nc1c2ccc(Cl)cc2nc2ccc(OC)cc12 (stereo not drawn)
True
C[C@@H](NCCCc1cccc(C(F)(F)F)c1)c1cccc2ccccc12
True

Q: Outcome? NNC(=O)c1cccc(C(=O)NN)c1
A: False

Q: Just curious, what result did C[n+]1ccn(Cc2ccccc2)c1 get here?
A: False

Q: Please share the test call associated with CCCCC(CC)CN=C(N)NC(N)=NCCCCCCN=C(N)NC(N)=NCC(CC)CCCC (stereo not drawn) .
A: True

Q: Could you kindly confirm the outcome this assay logged for CCC(Cl)C(Cl)C(Cl)CC(Cl)C(Cl)C(C)Cl (stereo not drawn) ?
A: False

Q: How did this test come out for CCCCC(CC)COC(=O)c1ccccc1C(=O)O (stereo not drawn) ?
A: False

###

- Method notes: Caspase-3/7 induction in HepG2 cells by small molecules, qHTS assay (AID 1346978); further: nearly all actives have a fitted effect of over 15% in size; further: potency means the concentration at half of the fitted maximal effect
- Assay conditions: HepG2 caspase-3/7 activation, Caspase-Glo luminescence, 17 h; series mostly up to 92.4 µM
- Excerpt: National Center for Advancing Translational Sciences [NCATS] NIH Chemical Genomics Center [NCGC] U.S. Environmental Protection Agency [EPA] National Institutes of Environmental Health Sciences [NIEHS] National Toxicology Program [NTP] Assay overview: Apoptosis is a process of programmed cell death and plays a central role in the development of multicellular organisms. […]
Inconclusive results are not listed. Activity calls are given as the source filed them. The call rests on the fitted dose curve; in most records, active means well fitted activation curve with a large enough effect in the repeat runs; inconclusive means weak or mixed curves; inactive means flat fitted curve, though single readings scatter.
Reported endpoint: Potency

Below, each entry is followed by its recorded Potency result.
CCC(C)(C)C1CCCCC1OC(C)=O (stereo unspecified)
inactive
O=C(NOCC1CC1)c1ccc(F)c(F)c1Nc1ccc(I)cc1Cl
inactive
CCCC1O[C@@H]2C[C@H]3[C@@H]4CCC5=CC(=O)C=C[C@]5(C)[C@H]4[C@@H](O)C[C@]3(C)[C@]2(C(=O)CO)O1 (stereo partly specified)
inactive
CC[C@H]1O[C@]2(CC[C@@H]1C)C[C@@H]1C[C@@H](C/C=C(\C)C[C@@H](C)/C=C/C=C3\CO[C@@H]4[C@H](O)C(C)=C[C@@H](C(=O)O1)[C@]34O)O2
30.4 µM (active)
CN(C)c1ccc(SC#N)cc1
inactive

Now let's try a different one.
Q: Which Potency value belongs to Nc1ccccc1O ?
A: inactive

###

- Method notes: qHTS assay to identify small molecule that activate the aryl hydrocarbon receptor (AhR) signaling pathway - cell viability counter screen (AID 743086); further: nearly all actives have a fitted effect of over 45% in size; further: potency means the concentration at half of the fitted maximal effect
- Assay conditions: HepG2-AhR-luc viability, CellTiter-Fluor, 24 h; series mostly up to 70.3 µM
Inconclusive results are not listed. Activity calls are given as the source filed them. The call rests on the fitted dose curve; in most records, active means well fitted cell-killing curve with a large enough effect in the repeat runs; inconclusive means weak or mixed curves, or effect the other way; inactive means flat fitted curve, though single readings scatter.
Reported endpoint: Potency

Use these answered entries as a reference point.
CCCN(CCC)C(=O)C(CCC(=O)OCCCN1CCN(CCOC(=O)Cc2c(C)n(C(=O)c3ccc(Cl)cc3)c3ccc(OC)cc23)CC1)NC(=O)c1ccccc1 (stereo not given)
21.1 µM (active)
Cn1cc(C(=O)[C@@H]2CCc3nc[nH]c3C2)c2ccccc21
inactive
CCC1OCC(COc2ccc(Oc3ccccc3)cc2)O1 (stereo not given)
inactive
CCOC(=O)O[C@]1(C(=O)OCCl)CC[C@H]2[C@@H]3CCC4=CC(=O)C=C[C@]4(C)[C@H]3[C@@H](O)C[C@@]21C
inactive
O=C(O)c1ccc(Cl)c(Cl)c1
inactive
Clc1ccc2nsnc2c1NC1=NCCN1
inactive
CCCCCCCCNC(C)C(O)c1ccc(SC(C)C)cc1 (stereo not given)
23.7 µM (active)
CCCCCCCCCCCCCCCC[N+](C)(C)CCN(Cc1ccc(OC)cc1)c1ncccn1
inactive
O=C(O)c1cc(O)c2c(c1)C(=O)c1cccc(O)c1C2=O
inactive

Please find the next compound below.
Q: Record request: Potency value, item CCCCC(CC)COP(=O)(O)OCC(CC)CCCC (stereo not given)
A: inactive

Data credit: PubChem BioAssay (Tox21)
